Tested on: Plasmodium berghei
experiment_notes: Antiparasitic activity as survival days against chloroquine-sensitive Plasmodium berghei ANKA infected NIH mice (Mus musculus) at 20 mg/kg intraperitoneal dose
Assay type: functional
Task for the reader: assign each of the following compounds its reported Survival.
Answers are plain numbers, in days.

- compound: "CCN(CC)CCCC(C)Nc1ccnc2cc(Cl)ccc12 (configuration not stated)"
  unit_text: "days"
  reading: 30

Could you tell me Survival for each of these compounds? They are listed below.
1. CCOC(=O)c1sc2c(c1N)S(=O)(=O)c1ccc(Cl)cc1N2c1cccc(OC)c1
2. CCOC(=O)c1sc2c(c1N)S(=O)(=O)c1ccc(Cl)cc1N2c1ccc(OC)cc1

12.16
11.6

Please report Survival for every entry that follows.
1. CCOC(=O)c1sc2c(c1N)S(=O)(=O)c1ccc(Cl)cc1N2c1ccc(C)cc1
2. CCOC(=O)c1sc2c(c1N)S(=O)(=O)c1ccc(Cl)cc1N2c1ccccc1C
3. CCOC(=O)c1sc2c(c1N)S(=O)(=O)c1ccc(Cl)cc1N2c1ccccc1
4. CCOC(=O)c1sc2c(c1N)S(=O)(=O)c1ccc(Cl)cc1N2c1cc(C)ccc1C

10.8
15.5
13
11.42
